Target: UniProt:P0DTD1
Test: biochemical
Settings: read-out: %inhibition
Structures can show the parent of a compound that is named as a salt.
What inhibition at 100 µM was measured for each of the following?
Answers are plain numbers, in %.

Past entries and their recorded results:
>>> meas_value("CC(C)C(=O)Oc1ccc(CO)cc1[C@H](CCN(C(C)C)C(C)C)c1ccccc1 [Fesoterodine Fumarate]")
0
>>> meas_value("COc1cc([C@H]2Oc3cc([C@H]4Oc5cc(O)cc(O)c5C(=O)[C@@H]4O)ccc3O[C@@H]2CO)ccc1O")
0
>>> meas_value("COCC(=O)Nc1c(I)c(C(=O)NCC(O)CO)c(I)c(C(=O)N(C)CC(O)CO)c1I (mixture of isomers) [Iopromide]")
0
>>> meas_value("C=CC(=O)Nc1cc(Nc2nccc(-c3cn(C)c4ccccc34)n2)c(OC)cc1N(C)CCN(C)C")
0
>>> meas_value("Cc1ccc(C)c(OCCCC(C)(C)C(=O)O)c1")
45.1
>>> meas_value("CC(=O)N1C[C@H](O)C[C@H]1C(=O)O")
0

Quick batch: inhibition at 100 µM for everything below.
1. Cn1c(=O)c2c(ncn2CC2OCCO2)n(C)c1=O
2. Cc1ncc(CNC(=O)N(CCCl)N=O)c(N)n1 [Nimustine Hydrochloride]
3. COc1ccc(-c2cc(=O)c3c(O)cc(O[C@@H]4O[C@H](CO[C@@H]5O[C@@H](C)[C@H](O)[C@@H](O)[C@H]5O)[C@@H](O)[C@H](O)[C@H]4O)cc3o2)cc1O

Ans.
1. 1.49
2. 0
3. 11.9

Dear colleague, could you please provide inhibition at 100 µM for the compounds listed below?
1. O=C(O)CCn1c2c(c3ccccc31)C[C@H](NS(=O)(=O)c1ccc(F)cc1)CC2
2. CCC(C)n1ncn(-c2ccc(N3CCN(c4ccc(OC[C@H]5CO[C@](Cn6cncn6)(c6ccc(Cl)cc6Cl)O5)cc4)CC3)cc2)c1=O (mixture of isomers)
3. O=S(=O)(O)Oc1ccc(C(c2ccc(OS(=O)(=O)O)cc2)c2ccccn2)cc1 [Sodium Picosulfate]
4. C#CCN[C@@H]1CCc2ccccc21 [Rasagiline Mesylate]
5. O=C1CC[C@@]2(O)[C@H]3Cc4ccc(O)c5c4[C@@]2(CCN3CC2CC2)[C@H]1O5 [Naltrexone HCl]

Ans.
1: 4.2; 2: 1.14; 3: 1.51; 4: 0; 5: 0

// for each compound in input: emit inhibition at 100 µM
1. Cc1nnc(SCC2=C(C(=O)O)N3C(=O)[C@@H](NC(=O)Cn4cnnn4)[C@H]3SC2)s1 [Cefazolin Sodium]
2. O=c1ccn([C@@H]2O[C@H](CO)[C@@H](O)[C@H]2O)c(=O)[nH]1
3. COc1cc(C(C)=O)ccc1OCCCN1CCC(c2noc3cc(F)ccc23)CC1

Ans.
1: 2.52; 2: 0; 3: 0

For each of the compounds below, note its inhibition at 100 µM.
1. COc1cc2c(Oc3ccc(NC(=O)C4(C(=O)Nc5ccc(F)cc5)CC4)cc3F)ccnc2cc1OCCCN1CCOCC1
2. Cc1[nH]c(/C=C2\C(=O)Nc3ccccc32)c(C)c1CCC(=O)O [Orantinib (TSU-68, SU6668)]
3. COC(c1ccccc1)(c1ccccc1)[C@H](Oc1nc(C)cc(C)n1)C(=O)O
4. CCn1cc(C(=O)O)c(=O)c2cnc(N3CCCC3)nc21
5. Cc1ccccc1-c1cc(N2CCN(C)CC2)ncc1N(C)C(=O)C(C)(C)c1cc(C(F)(F)F)cc(C(F)(F)F)c1
6. Cc1cn[nH]c1 [Fomepizole]
7. COc1cc2c(cc1OC)[C@H]1C[C@@H](OC(=O)[C@@H](N)C(C)C)[C@H](CC(C)C)CN1CC2 [Valbenazine tosylate]

Ans.
0
16.7
0
10.1
6.47
0
13.2

State recorded inhibition at 100 µM for all listed compounds.
1. CC(=O)CCCCn1c(=O)c2c(ncn2C)n(C)c1=O
2. O=C1C(O)=C([C@H]2CC[C@H](c3ccc(Cl)cc3)CC2)C(=O)c2ccccc21

Ans.
1: 19.6; 2: 23.4

Go through the list and state inhibition at 100 µM for each entry.
1. OC(Cn1cncn1)(Cn1cncn1)c1ccc(F)cc1F
2. CCCNC(C)C(=O)Nc1ccccc1C (stereo not shown) [Prilocaine hydrochloride]
3. C=C[C@@H]1C[C@]1(NC(=O)[C@@H]1C[C@@H](Oc2ncc(OC)c3ccc(Cl)cc23)CN1C(=O)[C@@H](NC(=O)OC(C)(C)C)C(C)(C)C)C(=O)NS(=O)(=O)C1CC1
4. CSCCNc1nc(SCCC(F)(F)F)nc2c1ncn2[C@@H]1O[C@H](COP(=O)(O)OP(=O)(O)C(Cl)(Cl)P(=O)(O)O)[C@@H](O)[C@H]1O [Cangrelor Tetrasodium]
5. COc1cccc(-c2ccc(NC(=O)C3=C(C(=O)O)CCC3)c(F)c2)c1

Ans.
1: 16.6; 2: 0; 3: 0; 4: 0; 5: 19.8
